Reference source for all entries: paper PMC7188713

Test: Plasma and urine pharmacokinetics of napabucasin in patients
Assay type: in vivo, Japanese patients
Settings: human, plasma, oral, 240 mg, plasma, Cycle 2 (Day 29), Cohort 1 (480 mg/day, 240 mg BID), n = 3; read-out: AUC0–24, range

{"molecule": "CC(=O)c1cc2c(o1)C(=O)c1ccccc1C2=O [napabucasin]", "AUC(0-t)": "2510 to 6180 ng·h/mL"}

====

Assay: Plasma and urine pharmacokinetics of napabucasin in patients
Type: in vivo, Japanese patients
Conditions: human, plasma, oral, 240 mg, plasma, Cycle 2 (Day 29), Cohort 1 (480 mg/day, 240 mg BID), n = 3; read-out: AUC0–∞, range

{"compound": "CC(=O)c1cc2c(o1)C(=O)c1ccccc1C2=O [napabucasin]", "AUC(0-inf)": "2570 to 6370 ng·h/mL"}

====

Test: Plasma and urine pharmacokinetics of napabucasin in patients
Type: in vivo, Japanese patients
Details: human, plasma, oral, 480 mg, plasma, Cycle 1 (Day 1), Cohort 2 (960 mg/day, 480 mg BID), n = 4; read-out: tmax, range
Description: Blood samples for PK were obtained on Days 1, 2, 8, and 15 of Cycle 1 and Days 29 and 30 of Cycle 2. […] Plasma napabucasin concentration was measured by Frontage Laboratories and CMIC Pharma Science Co., Ltd and urine napabucasin concentration was measured by CMIC Pharma Science Co., Ltd. […]

{"structure-smiles-string": "CC(=O)c1cc2c(o1)C(=O)c1ccccc1C2=O", "Tmax": "2 to 6 h"}

====

Experiment: Plasma and urine pharmacokinetics of napabucasin in patients
Format: in vivo, Japanese patients
Settings: human, plasma, oral, 240 mg, plasma, Cycle 2 (Day 29), Cohort 1 (480 mg/day, 240 mg BID), n = 3; read-out: t1/2, range

{"structure-smiles-string": "CC(=O)c1cc2c(o1)C(=O)c1ccccc1C2=O", "half-life": "4 to 5 h"}
